Target: Full length human CD40 (huCD40) on cells (human, UniProt P25942 21-277)
Sequence (P25942 21-277): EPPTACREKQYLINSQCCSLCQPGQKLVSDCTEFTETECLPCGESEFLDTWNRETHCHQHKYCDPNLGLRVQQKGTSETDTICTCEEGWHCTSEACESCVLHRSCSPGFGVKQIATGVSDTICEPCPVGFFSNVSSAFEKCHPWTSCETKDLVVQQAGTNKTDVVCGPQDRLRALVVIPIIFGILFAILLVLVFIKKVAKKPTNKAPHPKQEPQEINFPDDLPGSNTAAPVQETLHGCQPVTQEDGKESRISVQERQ
Test: cell-based or functional assay
METRIC: DC EC50, HLA-DR surface expression, with cross-linker (µg/mL)
Just the number in µg/mL, nothing appended.

The binder listed as C40M67 (antibody, human IgG1, kappa, V domains shown, Full-length IgG1/kappa; from phage display) VH: EVQLLESGGGLVQPGGSLRLSCAASGFTFSDYAMNWVRQAPGKGLEWVSGIKSGGSSKYYADSVKGRFTISRDNSKNTLYLQMNSLRAEDTAVYYCAKHVDFYRALDYWGQGTLVTVSS VL: EIVLTQSPGTLSLSPGERATLSCRASQSVKNSSLAWYQQKPGQAPRLLIYTASSRATGIPDRFSGSGSGTDFTLTISRLEPEDFAVYYCQQSSAPPWTFGQGTKVEIKR has a reported DC EC50, HLA-DR surface expression, with cross-linker of 0.0507
